- system: human CXCR4 (human)
- procedure details: competition vs [125I]-CXCL12, membranes of HEK293T cells expressing CXCR4
Could you label it condition met if measured pKi is 9 or higher, and condition not met otherwise?

Record excerpt, results attached:
binder: 238D2-20GS-238B10 (VHH) EVQLVESGGGLVQTGGSLRLSCAASGFTFSSYAMSWVRQAPGKGLEWVSGIKSSGDSTRYAGSVKGRFTISRDNAKNMLYLQMYSLKPEDTAVYYCAKSRVSRTGLYTYDNRGQGTQVTVSSGGGGSGGGGSGGGGSGGGGSEVQLVESGGGFVQAGGSLRLSCETSGRPLLGYTIAWFRQVPGKEREFVAYHRWSDGANLYADSVKGRFTISGHNAKNTVSLQMNSLKPEDTAVYYCAAARMTTSNDKEYLYWGQGTQVTVSS
group label: condition not met
//
binder: 238D2-20GS-238C5 (VHH) EVQLVESGGGLVQTGGSLRLSCAASGFTFSSYAMSWVRQAPGKGLEWVSGIKSSGDSTRYAGSVKGRFTISRDNAKNMLYLQMYSLKPEDTAVYYCAKSRVSRTGLYTYDNRGQGTQVTVSSGGGGSGGGGSGGGGSGGGGSEVQLMESGGGLVQAGGSLRLACAASGFTFEDYAIGWFRKAPGKEREGVSCISGSDGSTTYADSVKGRFTISTDNAKNTVYLEMNSLKPEDTAVYYCAQQYGVGGRVVCPGPYEYDVWGQGTQVTVSS
group label: condition not met
//
binder: 238D2-20GS-238D4 (VHH) EVQLVESGGGLVQTGGSLRLSCAASGFTFSSYAMSWVRQAPGKGLEWVSGIKSSGDSTRYAGSVKGRFTISRDNAKNMLYLQMYSLKPEDTAVYYCAKSRVSRTGLYTYDNRGQGTQVTVSSGGGGSGGGGSGGGGSGGGGSEVQLMESGGGLVQAGGSLRLSCAASGRTFNNYAMGWFRRAPGKEREFVAAITRSGVRSGVSAIYGDSVKDRFTISRDNAKNTLYLQMNSLKPEDTAVYTCAASAIGSGALRRFEYDYSGQGTQVTVSS
group label: condition met

Note: attention shifts to another entry.
Query: Quick check, pKi >= 9? 238D2-15GS-238D4 (VHH) EVQLVESGGGLVQTGGSLRLSCAASGFTFSSYAMSWVRQAPGKGLEWVSGIKSSGDSTRYAGSVKGRFTISRDNAKNMLYLQMYSLKPEDTAVYYCAKSRVSRTGLYTYDNRGQGTQVTVSSGGGGSGGGGSGGGGSEVQLMESGGGLVQAGGSLRLSCAASGRTFNNYAMGWFRRAPGKEREFVAAITRSGVRSGVSAIYGDSVKDRFTISRDNAKNTLYLQMNSLKPEDTAVYTCAASAIGSGALRRFEYDYSGQGTQVTVSS
Reply: condition met
